- Experimental details: physchem
- Conditions: kinetic from dmso stock
Measured attribute: solubility kinetic (µM)

Recorded results for 2 molecules are shown here.
INSERT INTO results (molecule, reported_value) VALUES
  ('CCc1cc(CC)n(-c2cccc(C(CC(=O)O)CN3CC[C@@H](CCc4ccc5c(n4)NCCC5)C3)c2)n1 (stereo partly shown)', 470),
  ('O=C(O)CC(CN1CC[C@@H](CCc2ccc3c(n2)NCCC3)C1)c1cccc(-n2cccn2)c1 (stereo partly shown)', 388);

P. Cc1nn(-c2cccc(C(CC(=O)O)CN3CC[C@@H](CCc4ccc5c(n4)NCCC5)C3)c2)c(C)c1F (stereo partly shown)
Q. CCc1cc(C)nn1-c1cccc(C(CC(=O)O)CN2CC[C@@H](CCc3ccc4c(n3)NCCC4)C2)c1 (stereo partly shown)
Could you kindly indicate whether P or Q has the higher solubility kinetic value? Mark your answer with the label of the selected entry.
P
(P: 437 µM, Q: 276 µM)
